Target: UniProt P15917
Sequence (P15917 whole entry, looked up): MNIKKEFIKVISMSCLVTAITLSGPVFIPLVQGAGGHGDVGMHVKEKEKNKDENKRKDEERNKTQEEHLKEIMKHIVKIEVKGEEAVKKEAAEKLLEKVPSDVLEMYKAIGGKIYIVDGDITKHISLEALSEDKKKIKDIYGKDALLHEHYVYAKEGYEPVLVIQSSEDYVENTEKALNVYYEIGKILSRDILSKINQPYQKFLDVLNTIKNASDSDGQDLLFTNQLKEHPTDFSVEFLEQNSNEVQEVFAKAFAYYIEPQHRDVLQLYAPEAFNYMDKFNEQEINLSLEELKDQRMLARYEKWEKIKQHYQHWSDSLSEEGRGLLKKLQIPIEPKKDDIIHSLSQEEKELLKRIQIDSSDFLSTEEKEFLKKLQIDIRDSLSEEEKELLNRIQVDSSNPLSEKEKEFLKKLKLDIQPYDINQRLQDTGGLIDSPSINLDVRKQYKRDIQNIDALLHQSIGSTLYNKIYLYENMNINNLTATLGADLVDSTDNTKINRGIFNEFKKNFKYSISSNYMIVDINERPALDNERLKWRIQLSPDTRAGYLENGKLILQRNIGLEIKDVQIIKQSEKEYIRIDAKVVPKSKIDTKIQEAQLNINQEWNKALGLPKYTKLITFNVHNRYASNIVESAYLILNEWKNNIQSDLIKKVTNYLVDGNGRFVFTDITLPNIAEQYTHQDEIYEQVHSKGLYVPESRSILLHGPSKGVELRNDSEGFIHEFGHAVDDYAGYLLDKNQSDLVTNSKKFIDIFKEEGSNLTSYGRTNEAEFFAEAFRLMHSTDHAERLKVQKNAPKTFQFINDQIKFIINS
Assay: Bacillus anthracis LF protease inhibitors, dose response, biochemical, multiplex microsphere (AID 720672)
Settings: multiplex microsphere LF protease substrate cleavage, flow cytometry
Active and inactive are the calls of the source. The rule behind the calls is not given here.
Classes used: active, inactive

>>> class_name("COc1ccc(-c2nc3nc(-c4ccccc4OC)cn3nc2-c2ccc(OC)cc2)cc1")
"active"
>>> class_name("COc1ccc(-c2cn3nc(-c4ccccc4)c(-c4ccccc4)nc3n2)c(OC)c1")
"inactive"
>>> class_name("Fc1cccc(-c2cn3nc(-c4ccccc4)c(-c4ccccc4)nc3n2)c1")
"active"
>>> class_name("FC(F)(F)Oc1ccc(-c2cn3nc(-c4ccccc4)c(-c4ccccc4)nc3n2)cc1")
"active"
>>> class_name("COc1cccc(-c2cn3nc(-c4ccc(F)cc4)c(-c4ccc(F)cc4)nc3n2)c1")
"active"
>>> class_name("COc1cccc(-c2cn3nc(-c4ccc(C)cc4)c(-c4ccc(C)cc4)nc3n2)c1")
"active"
>>> class_name("Cc1ccc(-c2nc3nc(-c4ccc(F)cc4)cn3nc2-c2ccc(C)cc2)cc1")
"active"
>>> class_name("CC(C)OC(=O)Nc1ccc2nc(-c3cccs3)c(-c3cccs3)nc2c1")
"inactive"
>>> class_name("CCCNC(=O)Nc1ccc2nc(-c3ccccc3)c(-c3ccccc3)nc2c1")
"inactive"
>>> class_name("CCNC(=S)Nc1ccc2nc(-c3ccccc3)c(-c3ccccc3)nc2c1")
"inactive"
>>> class_name("O=C(Nc1ccc2nc(-c3cccs3)c(-c3cccs3)nc2c1)NC1CCCC1")
"inactive"
>>> class_name("Fc1ccc(-c2cn3nc(-c4ccc(F)cc4)c(-c4ccc(F)cc4)nc3n2)cc1")
"active"
>>> class_name("CCCOC(=O)Nc1ccc2nc(-c3cccs3)c(-c3cccs3)nc2c1")
"inactive"
